# Experimental target: Mushroom tyrosinase (mTyr) (Agaricus bisporus, UniProt C7FF04)
# Construct: purchased Sigma Chemical Co. T3824-50KU
# Sequence (C7FF04 1-392): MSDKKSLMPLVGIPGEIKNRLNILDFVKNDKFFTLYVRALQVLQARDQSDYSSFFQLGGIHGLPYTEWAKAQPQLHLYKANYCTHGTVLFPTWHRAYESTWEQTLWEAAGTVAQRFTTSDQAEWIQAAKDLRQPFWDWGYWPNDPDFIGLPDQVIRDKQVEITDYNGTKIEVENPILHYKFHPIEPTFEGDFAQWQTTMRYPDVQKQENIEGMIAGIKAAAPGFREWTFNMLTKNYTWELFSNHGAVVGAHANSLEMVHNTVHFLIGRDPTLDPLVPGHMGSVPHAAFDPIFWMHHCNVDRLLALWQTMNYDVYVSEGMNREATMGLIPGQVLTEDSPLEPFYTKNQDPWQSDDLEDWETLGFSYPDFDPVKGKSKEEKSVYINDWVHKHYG
# Method description: Mushroom tyrosinase inhibition, L-tyrosine substrate (monophenolase)
# Format: biochemical
# Condition details: mTyr, L-tyrosine (monophenolase); read-out: Ki (inhibition constant)
Endpoint: Ki (µM)
Answers are plain numbers, in µM.

# query: Ki | item O=C(OC1C2C=COC(OC3OC(CO)C(O)C(O)C3O)C2C2(CO)OC12)c1ccc(O)c(O)c1 (stereo not shown) [Verproside (1), Verproside] | system: Mushroom tyrosinase (mTyr) (Agaricus bisporus, UniProt C7FF04) 5.1

====

# Experimental target: mushroom tyrosinase (Agaricus bisporus, UniProt C7FF04)
# Sequence (C7FF04 1-392): as above
# Method description: Affinity-based time-dependent assay (slow-binding kinetics)
# Condition details: fit of kobs to Equation (4); read-out: Ki^app (apparent Ki)
Endpoint: Ki (mM)
Give bare numbers, in mM.

# query: Ki | item O=C(OC1C2C=COC(OC3OC(CO)C(O)C(O)C3O)C2C2(CO)OC12)c1ccc(O)c(O)c1 (stereo not shown) [Verproside (1), Verproside] | system: mushroom tyrosinase (Agaricus bisporus, UniProt C7FF04) 2.4

====

# Tested on: mushroom tyrosinase
# Method description: Affinity-based ultrafiltration UPLC-QTOF-MS binding experiment
# Condition details: UPLC-QTOF-MS peak area in 1000 ppm extract, not exposed to enzyme
Give Control (area) for every item shown.
Give the number first and the unit second.

INSERT INTO assay_data (molecule, endpoint_result) VALUES
  ('O=C(OC1C2C=COC(OC3OC(CO)C(O)C(O)C3O)C2C2(CO)OC12)c1ccc(O)c(O)c1 (stereo not drawn) [Verproside (1), Verproside]', '112306 area'),
  ('COc1cc(C(=O)O[C@H]2[C@@H]3C=CO[C@@H](O[C@@H]4O[C@H](CO)[C@@H](O)[C@H](O)[C@H]4O)[C@@H]3[C@@]3(CO)O[C@@H]23)ccc1O [Picroside II (5), Picroside II]', '17798 area');

We now examine a further molecule.
Value lookup for Control (area); key = COc1ccc(/C=C/C(=O)O[C@H]2[C@@H]3C=CO[C@@H](O[C@@H]4O[C@H](CO)[C@@H](O)[C@H](O)[C@H]4O)[C@@H]3[C@@]3(CO)O[C@@H]23)cc1O [Minecoside (8), Minecoside] 976 area

====

# Experimental target: mushroom tyrosinase (Agaricus bisporus, UniProt C7FF04)
# Construct: purchased Sigma Chemical Co. T3824-50KU
# Method description: Affinity-based ultrafiltration UPLC-QTOF-MS binding experiment
# Condition details: UPLC-QTOF-MS peak area in 1000 ppm extract after incubation with mTyr
Give after tyrosinase (area) for every item shown.
Give bare numbers, in area.

In the examples that follow, each entry is paired with its recorded after tyrosinase (area).
INSERT INTO measurements (compound, experimental_target, units_label, endpoint_result) VALUES
  ('O=C(OC1C2C=COC(OC3OC(CO)C(O)C(O)C3O)C2C(O)(CO)C1Cl)c1ccc(O)c(O)c1 (stereo not shown) [Longifolioside A (2), Longifolioside A]', 'mushroom tyrosinase (Agaricus bisporus, UniProt C7FF04)', 'area', 3852),
  ('COc1cc(C(=O)O[C@H]2[C@@H]3C=CO[C@@H](O[C@@H]4O[C@H](CO)[C@@H](O)[C@H](O)[C@H]4O)[C@@H]3[C@@]3(CO)O[C@@H]23)ccc1O [Picroside II (5), Picroside II]', 'mushroom tyrosinase (Agaricus bisporus, UniProt C7FF04)', 'area', 12194);

Provide after tyrosinase (area) for all items below, preserving their order.
1. COc1ccc(C(=O)OC2C3C=COC(OC4OC(CO)C(O)C(O)C4O)C3C3(CO)OC23)cc1O (stereo not shown) [Isovanillyl catapol (7), Isovanillyl catapol]
2. O=C(/C=C/c1ccc(O)c(O)c1)O[C@@H]1C2C=CO[C@H](O[C@@H]3O[C@H](CO)[C@@H](O)[C@H](O)[C@H]3O)C2[C@]2(CO)O[C@H]12 (stereo partly shown) [Verminoside (4), Verminoside]

1. 8093
2. 2886
